- System: SW982
- protocol: Cytotoxicity against human SW982 cells assessed as reduction in cell viability incubated for 24 hrs by CellTiter-Glo luminescent cell viability assay
- Format: functional, cell-based
- settings: SW982, 24 h
IC50 strictly less than 9 µM = MET. Otherwise NOT MET.

>>> print(df.to_string())
                             compound    class
0       O=C(O)CSC1=CC(=O)c2ccccc2C1=O  NOT MET
1         CSC1=C(SC)C(=O)c2ccccc2C1=O      MET
2      O=C(O)CCSC1=CC(=O)c2ccccc2C1=O  NOT MET
3      CC1=C(SC(C)C)C(=O)c2ccccc2C1=O  NOT MET
4  CC1=CC(=O)c2ccccc2C1=O [MENADIONE]  NOT MET
